system: NOMO1; assay: cell viability relative to DMSO control; higher = less cytotoxic; details: RPMI 5 mM glucose + 10% dialyzed FBS; 48 h; 0.00234 µM
EXPERIMENTAL_READOUT: cell viability

mol=CCCCN1CCC(CNC(=O)c2c3n(c4ccccc24)CCCO3)CC1 measurement=110%
mol=c1ccc2c(CN3CCNCC3)cccc2c1 measurement=113%
mol=CN(C)c1ccc(-c2nc3c(N4CCN(CC(=O)Nc5nccs5)CC4)c(Cl)cnc3[nH]2)cc1 measurement=107%

###

system: SEM cells; experiment: AUC of viability dose-response curve (% viability x log10 dose units); higher = less sensitive; conditions: RPMI 5 mM glucose + 10% FBS; 48 h
Catalogue of AUC of viability dose-response curve readings, one per entry.
EXPERIMENTAL_READOUT: AUC of viability dose-response curve

compound=OC1=C(Cl)C=C(N\C2=C(\C(=O)NC2=O)C3=C(C=CC=C3)[N+]([O-])=O)C=C1 experimental_readout="AUC of viability dose-response curve" measurement=426
compound="CC(C)(C)NCC(O)c1ccc(O)c(CO)c1 (stereo not drawn)" experimental_readout="AUC of viability dose-response curve" measurement=461
compound=CCc1cnn2c(NCc3ccc[n+]([O-])c3)cc(N3CCCC[C@H]3CCO)nc12 experimental_readout="AUC of viability dose-response curve" measurement=193
compound=CN1CCN(c2ncc(-c3cc(Cl)cc(Cl)c3Cl)c(N)n2)CC1 experimental_readout="AUC of viability dose-response curve" measurement=459
compound=c1ccc2c(CCNc3ccc(Nc4ccncc4)cc3)c[nH]c2c1 experimental_readout="AUC of viability dose-response curve" measurement=282
compound=CCc1nc(N)nc(N)c1-c1ccc(Cl)cc1 experimental_readout="AUC of viability dose-response curve" measurement=392
compound=C[C@H](NC(=O)[C@@H](O)c1cc(F)cc(F)c1)C(=O)N[C@@H]1C(=O)N(C)c2ccccc2-c2ccccc21 experimental_readout="AUC of viability dose-response curve" measurement=453
compound=Nc1cc(N2CCCCC2)nc(N)[n+]1[O-] experimental_readout="AUC of viability dose-response curve" measurement=451
compound=COC(=O)CCC1=C(C)C2=CC3=NC(=CC4=C(C)C(=C([NH]4)C=C\5N=C(C=C1[NH]2)\C(=C5C)CCC(O)=O)C=C)\C6=C\C=C(/[C@@H](C(=O)OC)[C@@]36C)C(=O)OC experimental_readout="AUC of viability dose-response curve" measurement=441
compound="CC1Cc2ccccc2N1NC(=O)c1ccc(Cl)c([S+](N)(=O)[O-])c1 (stereo not drawn)" experimental_readout="AUC of viability dose-response curve" measurement=426
compound="CCN(CC)CCCC(C)Nc1ccnc2cc(Cl)ccc12 (stereo not drawn)" experimental_readout="AUC of viability dose-response curve" measurement=468
compound=CC[C@H](CO)Nc1nc(NCc2ccccc2)c2ncn(C(C)C)c2n1 experimental_readout="AUC of viability dose-response curve" measurement=467
compound=COC1=CC(c2cc3ccccc3[nH]2)=N/C1=C/c1[nH]c(C)cc1C experimental_readout="AUC of viability dose-response curve" measurement=420
compound=CCOc1cc(C(=O)Nc2ccc(Cl)c(-c3nc4ccccc4[nH]3)c2)cc(OCC)c1OCC experimental_readout="AUC of viability dose-response curve" measurement=392
compound=N#Cc1cc(NC(=O)Nc2nnc(-c3ccncc3)s2)ccc1-c1cn[nH]c1 experimental_readout="AUC of viability dose-response curve" measurement=462
compound=O=C1\C=C(OC2=C(C=CC=C12)C3=CC=CC4=C3SC5=C4C=CC=C5)\N6CCOCC6 experimental_readout="AUC of viability dose-response curve" measurement=425
compound=CN(C)c1ccc(-c2nc3c(N4CCN(CC(=O)Nc5nccs5)CC4)c(Cl)cnc3[nH]2)cc1 experimental_readout="AUC of viability dose-response curve" measurement=420
compound=CCOc1cc(N2CCC(O)CC2)ccc1Nc1ncc2c(n1)N(C)c1ccccc1C(=O)N2C experimental_readout="AUC of viability dose-response curve" measurement=421

###

test system: P12-Ichikawa; test: AUC of viability dose-response curve (% viability x log10 dose units); higher = less sensitive; settings: HPLM + 10% dialyzed FBS; 48 h
EXPERIMENTAL_READOUT: AUC of viability dose-response curve

molecule="C=C1CCC2[C@](C)(CO)C(O)CC[C@]2(C)C1C/C=C1/C(=O)OCC1O (some centres not stated)" measurement=454
molecule=O=C(O)/C=C/c1ccc(Cn2ccnc2)cc1 measurement=438
molecule="COc1cc2c(cc1O)CCC1C2CC[C@@]2(C)C1CC[C@@H]2O (some centres not stated)" measurement=359
molecule=F\C1=C\NC(=O)NC1=O measurement=405
molecule="CN1CCN2c3ccccc3Cc3ccccc3C2C1 (configuration not stated)" measurement=453
molecule="CC(C)(C)NCC(O)c1ccc(O)c(CO)c1 (configuration not stated)" measurement=438
molecule=CC(C)[C@]12O[C@H]1[C@@H]3O[C@@]34[C@@]5(C)CC\C6=C(COC6=O)/[C@@H]5C[C@@H]7O[C@]47[C@@H]2O measurement=59
molecule="CCN1\\C=C(C(O)=O)/C(=O)C2=C1C(=C(N3CCNC(C)C3)C(=C2)F)F (configuration not stated)" measurement=462
molecule=COc1ccc([S+](=O)([O-])Nc2cc(-c3c(O)ccc4ccccc34)c(O)c3ccccc23)cc1 measurement=429
molecule=CCCCCN(C)CCC(O)(P(=O)([O-])O)P(=O)(O)O measurement=447
molecule=COc1ccc(/C=C/C(=O)Nc2ccccc2C(=O)O)cc1OC measurement=453
molecule="CC1Cc2ccccc2N1NC(=O)c1ccc(Cl)c([S+](N)(=O)[O-])c1 (configuration not stated)" measurement=463
molecule=C/C1=C/C(=C(/CNC(=O)C2=CC(=CC3=C2C=N[N]3C4CCCC4)C5=CC=C(CN6CCOCC6)C=C5)C(=O)N1)C measurement=456
molecule=CNC(=O)c1nn(C)c2c1C(C)(C)Cc1cnc(Nc3ccc(N4CCN(C)CC4)cc3)nc1-2 measurement=404
molecule=O=C(Nc1ccccc1)Nc1ccc(-c2ccc(C(=O)[C@@H]3CCC[C@H]3C(=O)O)cc2)cc1 measurement=444
molecule=Cc1n[nH]c2ccc(-c3cncc(OC[C@@H](N)Cc4ccccc4)c3)cc12 measurement=371
molecule=N[C@@H]1C[C@H]1c1ccccc1 measurement=437
molecule=CC(=O)N(O)CCCCCNC(=O)CCC(=O)N(O)CCCCCNC(=O)CCC(=O)N(O)CCCCCN.C[S+](=O)([O-])O measurement=115
molecule="OC1CCC(CC1)N2\\C=N/C3=C(C2=N)C(=C([N]3CC4=CC=CC=C4)C5=CC=CC=C5)C6=CC=CC=C6 (configuration not stated)" measurement=437
molecule="OC[C@H]1OC(O)C[C@@H](O)[C@@H]1O (some centres not stated)" measurement=463
molecule=Nc1nccc(-c2ccc3noc(-c4ccc(Cl)cc4)c3c2)n1 measurement=468
molecule="COC1=CC=C(C=C1)C/2=C(OC3O[C@@H](C)[C@H](O)[C@@H](O)[C@H]3O)/C(=O)C4=C(O2)C(=C(OC5O[C@H](CO)[C@@H](O)[C@H](O)[C@H]5O)C=C4O)CC=C(C)C (some centres not stated)" measurement=456
molecule="CCN(CC)CCCC(C)Nc1ccnc2cc(Cl)ccc12 (configuration not stated)" measurement=416
molecule=CC(C)(Sc1cc(C(C)(C)C)c(O)c(C(C)(C)C)c1)Sc1cc(C(C)(C)C)c(O)c(C(C)(C)C)c1 measurement=445
molecule=Nc1ncnc2nc(-c3ccc(N4CCOCC4)nc3)cc(-c3cccc(Br)c3)c12 measurement=460
molecule=c1coc(CNc2ncnc3nc[nH]c23)c1 measurement=437
molecule=Cn1cnc(N)c2ncnc1-2 measurement=396
molecule=COc1cc(C[C@@H](CO)[C@H](CO)Cc2ccc(O)c(OC)c2)ccc1O measurement=464
molecule="Clc1ccc(C(c2ccc(Cl)cc2)[n+]2ccn(CC(OCc3ccc(Cl)cc3Cl)c3ccc(Cl)cc3Cl)c2)cc1 (configuration not stated)" measurement=438
molecule=CC1(C)[C@H](C(=O)O)N2C(=O)C[C@H]2[S+]1(=O)[O-] measurement=468
molecule=COc1c(N2C[C@@H]3CCCN[C@@H]3C2)c(F)cc2c(=O)c(C(=O)O)cn(C3CC3)c12.Cl.O measurement=434
molecule=Nc1cc(N2CCCCC2)nc(N)[n+]1[O-] measurement=469
molecule=OC1=C(Cl)C=C(N\C2=C(\C(=O)NC2=O)C3=C(C=CC=C3)[N+]([O-])=O)C=C1 measurement=457
molecule=CC(C)c1cccc(C(C)C)c1O measurement=453
molecule=C[S+](=O)([O-])N1CCN(Cc2cc3nc(-c4cccc5[nH]ncc45)nc(N4CCOCC4)c3s2)CC1 measurement=428
molecule=COC(=O)CCC1=C(C)C2=CC3=NC(=CC4=C(C)C(=C([NH]4)C=C\5N=C(C=C1[NH]2)\C(=C5C)CCC(O)=O)C=C)\C6=C\C=C(/[C@@H](C(=O)OC)[C@@]36C)C(=O)OC measurement=469
molecule=COc1nc(N)nc2c1ncn2[C@@H]1O[C@H](CO)[C@@H](O)[C@@H]1O measurement=455
